Every entry's value here was drawn from patent US10874743B2.

test: Pharmacokinetics in CD-1 mice (plasma concentrations, PK parameters); assay type: in vivo; conditions: CD-1, mouse, plasma, po, 30 mg/kg, mouse (CD1) po 30 mg/kg; 4 h; individual Mouse 4-6; read-out: Concentration
MEASURED_PARAMETER: concentration at 4 h (ng/mL)
Could you give me the number in ng/mL? Just the number is fine.

concentration at 4 h recorded for this molecule, O=C1CCC(N2C(=O)c3cccc(NCCOCCOCCNCc4ccc(-n5cc(NC(=O)c6coc(-c7ccnc(NCC8CC8)c7)n6)c(C(F)F)n5)cc4)c3C2=O)C(=O)N1 (stereo not shown) , is 92.5

----------
molecular target: IRAK4 (Homo sapiens, UniProt Q9NWZ3); experiment: OCI-LY-10 degradation assay (western blot, % IRAK4 degraded after 4 hours); assay type: cell-based; parameters: endogenous in cells; host or cells: OCI-LY10; conditions: OCI-LY10 cells, IRAK4 degraded after 4 hours, western blot
Sequence (Q9NWZ3 whole entry): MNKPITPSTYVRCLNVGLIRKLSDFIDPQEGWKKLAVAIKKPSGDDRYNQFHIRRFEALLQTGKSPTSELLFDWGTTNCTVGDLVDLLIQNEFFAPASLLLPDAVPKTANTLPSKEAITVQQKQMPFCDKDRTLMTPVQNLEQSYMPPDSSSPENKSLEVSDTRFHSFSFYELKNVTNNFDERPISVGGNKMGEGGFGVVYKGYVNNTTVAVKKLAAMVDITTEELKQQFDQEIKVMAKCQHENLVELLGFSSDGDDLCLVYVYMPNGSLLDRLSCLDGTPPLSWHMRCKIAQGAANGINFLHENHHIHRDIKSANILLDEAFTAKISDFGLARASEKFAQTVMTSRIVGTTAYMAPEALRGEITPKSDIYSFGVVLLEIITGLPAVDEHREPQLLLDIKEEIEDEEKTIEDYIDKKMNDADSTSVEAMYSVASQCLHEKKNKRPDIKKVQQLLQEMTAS
MEASURED_PARAMETER: OCI-LY10 % IRAK4 Degradation

Please review the entries below; each comes with its answer.
Lookup result for Cc1ncsc1-c1ccc(CNC(=O)[C@@H]2C[C@@H](O)CN2C(=O)[C@@H](NC(=O)COCCOCCOCCNC(=O)c2ccc(-n3cc(NC(=O)c4coc(-c5ccnc(NCC(F)(F)F)c5)n4)c(C(N)=O)n3)cc2)C(C)(C)C)cc1 ; measured OCI-LY10 % IRAK4 Degradation: B (>20-50% degradation)

GET /value?item= N#Cc1cnc2c(cnn2-c2cc(NC3CC3)c(C(=O)NCC(F)COCCOCCOCCOCCOCCNc3cccc4c3C(=O)N(C3CCC(=O)NC3=O)C4=O)cn2)c1 (stereo not drawn) &field=OCI-LY10 % IRAK4 Degradation returns C (<20% degradation)

OCI-LY10 % IRAK4 Degradation in this record for CC(C)(OCCNc1cccc2c1C(=O)N(C1CCC(=O)NC1=O)C2=O)C(F)CNC(=O)c1cnc(-n2ncc3cc(C#N)cnc32)cc1NC1CC1 (stereo not drawn) : C (<20% degradation)

Sample N#Cc1cnc2c(cnn2-c2cc(NC3CC3)c(C(=O)N[C@H]3CC[C@H](C(=O)NCCOCCOCCOCCNC(=O)COc4cccc5c4C(=O)N(C4CCC(=O)NC4=O)C5=O)CC3)cn2)c1 (stereo partly drawn) ; OCI-LY10 % IRAK4 Degradation observed: C (<20% degradation)

// OCI-LY10 % IRAK4 Degradation value for CC(OCCOCCOCCNc1cccc2c1C(=O)N(C1CCC(=O)NC1=O)C2=O)C(F)CNC(=O)c1cnc(Nc2ccc3cnccc3n2)cc1NC1CC1 (stereo not drawn) : C (<20% degradation)

// field: OCI-LY10 % IRAK4 Degradation; key: N#Cc1cnc2c(cnn2-c2cc(NC3CC3)c(C(=O)NCC(F)COc3cccc4c3C(=O)N(C3CCC(=O)NC3=O)C4=O)cn2)c1 (stereo not drawn) ; value = C (<20% degradation)

Others:
Field OCI-LY10 % IRAK4 Degradation (entry O=C1CCC(N2C(=O)c3cccc(NCCOCCOCCOC[C@H]4C[C@H](NC(=O)c5cnc(Nc6ccc7cnccc7n6)cc5NC5CC5)C4)c3C2=O)C(=O)N1 (stereo partly drawn) ) reads C (<20% degradation)

The compound identified as CC(C)(OCCOCCOCCNc1cccc2c1C(=O)N(C1CCC(=O)NC1=O)C2=O)C(F)CNC(=O)c1cnc(-n2ncc3cc(C#N)cnc32)cc1NC1CC1 (stereo not drawn) registered its OCI-LY10 % IRAK4 Degradation at C (<20% degradation)

The compound listed as O=C1CCC(N2C(=O)c3ccc(CCCOCCOCCNCc4ccc(-n5cc(NC(=O)c6coc(-c7ccnc(NCC8CC8)c7)n6)c(C(F)(F)F)n5)cc4)cc3C2=O)C(=O)N1 (stereo not drawn) has a reported OCI-LY10 % IRAK4 Degradation of B (>20-50% degradation)

Entry under test: CN(CCOCCOCCOCCOCCNc1cccc2c1C(=O)N(C1CCC(=O)NC1=O)C2=O)C(=O)[C@H]1C[C@H](NC(=O)c2cnc(-n3ncc4cc(C#N)cnc43)cc2NC2CC2)C1 (stereo partly drawn) . Its OCI-LY10 % IRAK4 Degradation was C (<20% degradation)

Documented OCI-LY10 % IRAK4 Degradation of Cc1ncsc1-c1ccc(CNC(=O)[C@@H]2C[C@@H](O)CN2C(=O)[C@@H](NC(=O)COCCOCCOCCOCCOCCN2CCN([C@H]3CC[C@H](Oc4ncnc5sc6c(c45)[C@@H](C[C@H](O)C(N)=O)CC6)CC3)CC2)C(C)(C)C)cc1 : C (<20% degradation)

Kindly note the recorded OCI-LY10 % IRAK4 Degradation for N#Cc1cnc2c(cnn2-c2cc(NC3CC3)c(C(=O)N[C@H]3C[C@H](COCCOCCOCCOCCOCCNc4cccc5c4C(=O)N(C4CCC(=O)NC4=O)C5=O)C3)cn2)c1 (stereo partly drawn) , which is C (<20% degradation)

OCI-LY10 % IRAK4 Degradation measured on NC(=O)c1nn(-c2ccc(C(=O)NCC#CC#CCNc3cccc4c3C(=O)N(C3CCC(=O)NC3=O)C4=O)cc2)cc1NC(=O)c1coc(-c2ccnc(NCC(F)(F)F)c2)n1 (stereo not drawn) = C (<20% degradation)
